# tgt: D-amino-acid oxidase (Homo sapiens, UniProt P14920)
# Sequence (P14920 whole entry): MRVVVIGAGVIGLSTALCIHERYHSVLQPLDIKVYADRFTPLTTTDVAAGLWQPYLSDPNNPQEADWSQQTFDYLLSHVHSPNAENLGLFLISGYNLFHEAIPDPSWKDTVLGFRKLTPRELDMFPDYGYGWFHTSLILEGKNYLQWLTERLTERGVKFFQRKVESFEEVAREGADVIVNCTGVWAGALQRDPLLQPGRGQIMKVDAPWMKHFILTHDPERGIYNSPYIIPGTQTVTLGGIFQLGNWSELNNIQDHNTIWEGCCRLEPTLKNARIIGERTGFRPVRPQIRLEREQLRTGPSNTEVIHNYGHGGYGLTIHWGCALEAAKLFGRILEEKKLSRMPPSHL
# protocol: Inhibition of recombinant full length human DAO preincubated with compound for 20 mins measured after 4 hrs by Amplex red and horseradish peroxidase based fluorescence assay
endpoint name: IC50 (nM)

| compound | tgt | unit of measurement | IC50 |
| --- | --- | --- | --- |
| N#Cc1ccc(CSc2c[nH]c(=O)c(=O)[nH]2)cc1 | D-amino-acid oxidase (Homo sapiens, UniProt P14920) | nM | 43 |
| O=c1[nH]cc(CSc2ccc(Cl)cc2)[nH]c1=O | D-amino-acid oxidase (Homo sapiens, UniProt P14920) | nM | 130 |
| Cc1n[nH]c2cc(CCc3c[nH]c(=O)c(=O)[nH]3)ccc12 | D-amino-acid oxidase (Homo sapiens, UniProt P14920) | nM | 640 |
| O=c1[nH]cc(SCc2ccc(F)c(F)c2)[nH]c1=O | D-amino-acid oxidase (Homo sapiens, UniProt P14920) | nM | 300 |
| O=c1[nH]cc(CSc2ccc(S(F)(F)(F)(F)F)cc2)[nH]c1=O | D-amino-acid oxidase (Homo sapiens, UniProt P14920) | nM | 80 |

(P) O=c1[nH]cc(CCc2ccc(Cl)cc2)[nH]c1=O
(Q) N#Cc1ccc2c(c1)OC[C@@H](c1c[nH]c(=O)c(=O)[nH]1)S2
*Q* In terms of reported IC50, does P or Q have the smaller number? Bench note: the answer is the label of the chosen record.
*A* Q

====

# tgt: D-amino-acid oxidase (Homo sapiens, UniProt P14920)
# protocol: Inhibition of recombinant full length human DAO preincubated with compound for 20 mins measured after 4 hrs by Amplex red and horseradish peroxidase based fluorescence assay
pIC50: −log10 of the molar value.
endpoint name: pIC50

| molecule | tgt | endpoint name | measured value |
| --- | --- | --- | --- |
| O=c1[nH]cc(CCc2ccc(-c3cc(O)n[nH]3)c(F)c2)[nH]c1=O | D-amino-acid oxidase (Homo sapiens, UniProt P14920) | pIC50 | 6.49 |

(A) O=c1[nH]cc(CCc2ccccc2Cl)[nH]c1=O
(B) O=c1[nH]cc(CCc2ccc(OC(F)F)nc2)[nH]c1=O
*Q* Pick one, A or B : lowest reported pIC50. Give the chosen item's label as your response.
*A* A

(I) O=c1[nH]cc(SCc2ccc(C(F)(F)F)nc2)[nH]c1=O
(II) O=c1[nH]c2ccsc2[nH]c1=O
*Q* Min pIC50? I | II Please identify the chosen entry by its label.
*A* I
(I: 6.60, II: 6.92)

(1) O=c1[nH]cc(SCc2ccc(C(F)F)cc2)[nH]c1=O
(2) O=c1[nH]cc(SCc2ccc(Cl)cc2)[nH]c1=O
(3) O=c1[nH]cc(CCc2cc(Cl)cc(Cl)c2)[nH]c1=O
(4) O=c1[nH]cc(C2COc3ccccc3S2)[nH]c1=O (racemic)
*Q* Put the items in sequence by pIC50, from largest down. Provide the ranking by listing each label in its place in the requested order.
*A* 1, 2, 4, 3
(1: 7.15, 2: 6.82, 4: 6.39, 3: 5.60)
